# Test system: Liver microsomes
# Assay Name: Clearance in Sprague-Dawley rat liver microsomes at pH 7.4 assessed per mg of protein
# Format: ADME, Microsome
Measured Endpoint: CL (nmol/min/mg)

[[record]]
molecule = "CN1CCc2nc(C(=O)NC3C[C@@H](C(=O)N(C)C)CCC3NC(=O)c3cc4cc(Br)ccc4[nH]3)sc2C1 (single isomer, unassigned)"
data_value = 0.019

[[record]]
molecule = "CN1CCc2nc(C(=O)N[C@@H]3C[C@@H](C(=O)N(C)C)CC[C@@H]3NC(=O)c3nc4cc(Cl)ccc4[nH]3)sc2C1"
data_value = 0.042

[[record]]
molecule = "CN1CCc2nc(C(=O)N[C@@H]3C[C@@H](C(=O)N(C)C)CC[C@@H]3NC(=O)c3[nH]c4ccc(Cl)cc4c3F)sc2C1"
data_value = 0.06

[[record]]
molecule = "CN1CCc2nc(C(=O)N[C@@H]3C[C@@H](C(=O)N(C)C)CC[C@@H]3NC(=O)c3[nH]c4ccc(Cl)cc4c3C(=O)N(C)C)sc2C1"
data_value = 0.028


The measured values listed here are drawn from ChEMBL document CHEMBL1153091.
